- System: T-47D breast
- protocol.description: NCI tumour cell line growth inhibition, 48 h
quantity.name: TGI

{"compound": "S=C1C=C(c2ccccc2)Sc2ccccc2N1", "system.under.test": "T-47D breast", "quantity.name": "TGI", "result": "> 100 µM"}

Reported TGI ( "COC(=O)CCC1=C(C)c2cc3[n-]c(cc4nc(cc5[n-]c(cc1n2)c(CCC(=O)OC)c5C)C=C4C)cc3C.[Cd+2]" ) = 6.95 µM

Reported TGI ( COc1ccc(C(Nc2ncccn2)c2cc3c(cc2O)OCO3)cc1 (stereo unspecified) ) = 28 µM

Reported TGI ( "FC(F)(F)c1ccc(-c2cnc(Br)nc2NC2CCCCCC2)cc1" ) = > 100 µM

Reported TGI ( "Nc1cccc(OCc2nc(N)nc(N)c2-c2ccc(Cl)cc2)c1" ) = > 100 µM

Reported TGI ( Cn1c(=O)n(CC(Br)CBr)c(=O)n(CC(Br)CBr)c1=O (stereo unspecified) ) = > 100 µM

Reported TGI ( CN(Cc1cnc2nc(N)nc(N)c2n1)c1ccc(C(=O)NC(CCC(=O)O)C(=O)O)cc1 (stereo unspecified) ) = > 100 µM

Reported TGI ( "c1ccc(-c2cc(-c3cc(-c4ccccc4)n(-c4ccccc4)n3)nn2-c2ccccc2)cc1" ) = > 100 µM

Reported TGI ( "Cc1cc(=Nc2ccc3c(c2)c(N)cc(C)[n+]3C)nc(N)n1C" ) = > 100 µM

Reported TGI ( "Cc1[nH]c2ccccc2c1C=Nc1ccc(Oc2ccccc2)cc1" ) = 40.5 µM

Reported TGI ( "COc1cc2c(cc1OC)CCN=C2" ) = > 100 µM
